# Test system: Escherichia coli TOP10;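 note: peptides expressed intracellularly from a pBAD plasmid library in pooled LB shake-flask culture, induced with 0.3% L-arabinose, DNA abundance read by NGS, three biological replicates, DESeq2 with apeglm shrinkage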
# protocolDescription: shrunken log2 fold change of peptide-encoding DNA abundance (4.5 h post-induction vs induction); higher = less antimicrobial activity (less host growth inhibition)
# reportedConditions: time post-induction: 4.5 h; library: site-saturation at positions 5, 18, 19, 20
In this scheme, each record receives a class according to its shrunken log2 fold change; the ranges are band A = under -0.3, band B = from -0.3 up to 0.07, band C = 0.07 and over

Each sequence maps to one class by shrunken log2 fold change. Which class for RRIRYRPPRLPRPRPRPCCMPRP ?
band A

Query RRIRKRPPRLPRPRPRPIVQPRP next
band B

And then RRIRSRPPRLPRPRPRPPVLPRP , what is it?
band B

Now give it for RRIRTRPPRLPRPRPRPTMLPRP too.
band C

Now the same for RRIRHRPPRLPRPRPRPHLIPRP
band B

Next sequence up: RRIRDRPPRLPRPRPRPIIEPRP
band C

Query RRIRERPPRLPRPRPRPFYPPRP next
band A

Try the sequence RRIRWRPPRLPRPRPRPCEMPRP
band C

Please do the same for RRIRCRPPRLPRPRPRPNIEPRP as well.
band B

Now give it for RRIRFRPPRLPRPRPRPLFRPRP too.
band A

Subsequent entry: RRIRDRPPRLPRPRPRPDFFPRP
band C

// repeat for RRIRWRPPRLPRPRPRPSVIPRP and report
band B
